Assay Target: Neuronal acetylcholine receptor; alpha3/beta4 (Rattus norvegicus, UniProt P04757+P12392)
Sequence (P04757 whole entry): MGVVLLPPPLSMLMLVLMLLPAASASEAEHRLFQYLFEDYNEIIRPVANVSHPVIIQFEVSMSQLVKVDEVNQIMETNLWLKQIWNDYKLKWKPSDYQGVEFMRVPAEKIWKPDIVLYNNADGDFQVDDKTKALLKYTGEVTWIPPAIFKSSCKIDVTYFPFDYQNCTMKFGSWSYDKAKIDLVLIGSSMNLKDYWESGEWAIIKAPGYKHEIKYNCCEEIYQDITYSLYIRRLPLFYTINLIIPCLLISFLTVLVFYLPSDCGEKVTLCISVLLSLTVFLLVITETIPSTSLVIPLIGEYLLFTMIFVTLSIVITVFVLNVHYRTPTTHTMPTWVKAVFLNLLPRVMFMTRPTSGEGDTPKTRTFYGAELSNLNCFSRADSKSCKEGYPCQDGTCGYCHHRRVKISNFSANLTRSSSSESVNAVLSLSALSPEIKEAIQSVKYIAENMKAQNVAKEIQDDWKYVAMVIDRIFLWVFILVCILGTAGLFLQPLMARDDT
Sequence (P12392 whole entry): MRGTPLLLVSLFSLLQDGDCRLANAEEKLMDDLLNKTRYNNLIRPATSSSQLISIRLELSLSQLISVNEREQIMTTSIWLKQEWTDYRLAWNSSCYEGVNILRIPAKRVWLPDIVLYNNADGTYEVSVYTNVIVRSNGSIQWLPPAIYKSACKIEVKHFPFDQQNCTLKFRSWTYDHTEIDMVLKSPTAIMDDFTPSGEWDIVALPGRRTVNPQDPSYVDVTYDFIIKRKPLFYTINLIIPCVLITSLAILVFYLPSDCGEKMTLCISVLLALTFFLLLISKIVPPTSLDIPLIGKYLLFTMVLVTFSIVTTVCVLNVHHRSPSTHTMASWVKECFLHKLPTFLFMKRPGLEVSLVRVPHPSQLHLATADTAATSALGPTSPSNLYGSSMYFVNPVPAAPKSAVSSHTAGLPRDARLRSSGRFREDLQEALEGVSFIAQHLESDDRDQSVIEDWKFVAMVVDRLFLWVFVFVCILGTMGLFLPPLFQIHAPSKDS
Experimental Details: Activity at rat alpha3beta4 nicotinic receptor expressed in KXalpha-3-beta-4R2 cells assessed as nicotine-induced 86Rb+ efflux
Type: cell-based
Assay Metric: IC50 (µM)
One number for each entry, in µM.

**Query** Entry under review: `CO[C@H]1CC=C2CCN3CCC4=C(CC(=O)OC4)[C@]23C1` . Reported IC50?
**Result** 100
